Listing of entries alongside the reported melting point.

compound=C#Cc1c[nH]c2nc(NC(=O)C(C)(C)C)nc(O)c12 measurementkind="melting point" result="> 300 °C"
compound=COC(=O)/C=C/C(=O)O[C@@H](C)C(=O)N1CCOCC1 measurementkind="melting point" result="79 to 82 °C"
compound=COc1cc2ccccc2c(=O)c2cc(Cl)sc12 measurementkind="melting point" result="190 to 194 °C"
compound=CC(C)C[C@H](NC(=O)OC(C)(C)C)C(=O)N[C@@H](C(C)C)[C@@H](O)c1c(-c2ccccc2)c1=O measurementkind="melting point" result="158 to 161 °C"
compound=CCOC(=O)c1c(-c2ccccc2C)c2cc(Cl)ccc2[nH]c1=O measurementkind="melting point" result="215 to 216 °C"
compound=CCCCCCCCCCCCN1C(=O)C=CC1=O measurementkind="melting point" result="56 °C"
compound=CC(C)(Cn1c(CCO)nc2c(N)nc3ccccc3c21)NS(C)(=O)=O measurementkind="melting point" result="209 to 212 °C"
compound=CC(=O)c1ccc(-n2sc3ccccc3c2=O)cc1 measurementkind="melting point" result="183 to 185 °C"
compound=Cc1ncc(CN2CCc3ccccc3C2)c(N)n1 measurementkind="melting point" result="150 to 153 °C"
compound=CCc1cc(-n2ccc(=O)cc2)c(S(C)(=O)=O)cc1C(=O)N=C(N)N measurementkind="melting point" result="261 to 263 °C"

# melting point (compound: CCOC(=O)N1Cc2cc(=O)[nH]nc2C(C)C1 (stereo not given) ) is 125 to 127 °C

# melting point (compound: Cc1ccc(-c2nc(O)c(C)s2)cc1 ) is 172 to 174 °C

# melting point (compound: CC(C)(C)OC(=O)COC[C@@H]1C[C@@H](SC(c2ccccc2)(c2ccccc2)c2ccccc2)CN1S(C)(=O)=O ) is 98 °C

# melting point (compound: CC(C)c1nc(CCOC(=O)N[C@H](C(=O)N[C@@H](Cc2ccccc2)[C@@H](O)C[C@H](Cc2ccccc2)NC(=O)OCc2cncs2)C(C)C)cs1 ) is 159 to 160 °C

# melting point (compound: COc1ccccc1Oc1c(Cl)nc(-c2cccc(OCc3ccccc3)c2)nc1NS(=O)(=O)c1ccc(C)cn1 ) is 176 to 180 °C

# melting point (compound: CCCCc1nc2c(N)nc3cccnc3c2n1CCN ) is 175 to 176 °C
